- test-description: DSSTox (CPDBAS) Carcinogenic Potency Database Summary SingleCellCall Results
- test-parameters: animal chronic carcinogenicity bioassays, CPDB summary call
The source made the active and inactive calls.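 The calls were made as follows: active = a tumor-causing dose value with its tumor site reported for any sex and species group of a rodent or other animal cancer study; inconclusive = only studies judged inadequate by the national testing program; inactive = tested in at least one study, none positive.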
Hi there, use one of these labels in your reply, thanks! active, inactive

Exercise: Query: recorded result category for ClCC(Cl)(Cl)Cl in this test
Key: active

Exercise: Query: recorded result category for C[C@]12C=CC(=O)C=C1CC[C@@H]1[C@@H]2[C@@H](O)C[C@@]2(C)[C@H]1CC[C@]2(O)C(=O)COC(=O)CCCc1ccc(N(CCCl)CCCl)cc1 in this test
Key: active

Exercise: Query: recorded result category for C=C(C)C#N in this test
Key: inactive

Exercise: Query: recorded result category for CN(C)C(=O)COC(=O)Cc1ccc(OC(=O)c2ccc(N=C(N)N)cc2)cc1 in this test
Key: inactive

Exercise: Query: recorded result category for COC(=O)C1=C(C)NC(C)=C(C(=O)OCCN2CCN(C(c3ccccc3)c3ccccc3)CC2)C1c1cccc([N+](=O)[O-])c1 (stereo not drawn) in this test
Key: inactive

Exercise: Query: recorded result category for C=CC(=O)O in this test
Key: inactive

Exercise: Query: recorded result category for Cc1ccc(N)cc1 in this test
Key: active

Exercise: Query: recorded result category for O=C1CCCCCN1 in this test
Key: inactive

Exercise: Query: recorded result category for CC1CO1 (stereo not drawn) in this test
Key: active

Exercise: Query: recorded result category for CCCCN(CCCC)N=O in this test
Key: active

Exercise: Query: recorded result category for NC(=S)Nc1ccccc1 in this test
Key: inactive

Exercise: Query: recorded result category for CCCCCN(N=O)C(=N)N[N+](=O)[O-] in this test
Key: inactive

Exercise: Query: recorded result category for N=c1ccn2c(n1)O[C@H]1[C@H](O)[C@@H](CO)O[C@H]12 in this test
Key: inactive
